biological target: T1, Streptavidin on Streptavidin-coated biosensors (UniProt P22629 25-183); assay: BLI; BLItz system; Streptavidin-coated biosensors exposed to chemically synthesized 5'FAM peptides for 2 min in ES2 buffer; only a single analyte concentration tested; conditions: both partners purified
T1 construct: Streptavidin coated on disposable biosensors; also called Streptavidin biosensors; source: bought: Streptavidin-coated biosensors for ForteBio's BLItz system
T1 sequence (P22629 25-183): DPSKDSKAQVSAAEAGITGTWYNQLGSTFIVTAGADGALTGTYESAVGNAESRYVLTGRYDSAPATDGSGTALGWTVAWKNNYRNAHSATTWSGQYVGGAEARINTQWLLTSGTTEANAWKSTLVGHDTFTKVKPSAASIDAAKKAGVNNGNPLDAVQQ
Where no end group is shown, it is not given here.
endpoint.name: Kd (µM)
Value expressed in µM; do not type the unit.

Need Kd, item {FAM}-VSHPQAPF (B5; source: synthetic peptide) [5'FAM-labeled B5 peptide]
79.5

Moving on to another binder below.
Look up Kd for this binder: {FAM}-WSHPQFEK (Strep-tag II; source: synthetic peptide) [5'FAM-labeled Strep-tag II peptide]
25.4
